Source listed as ChEMBL document CHEMBL3507680.

# Method: Human HepG2 cell viability assay in 384 well format
# Type: toxicity, cell-based
# Design: dose 125 nL, time 70.5 hour; concentration not given beside the values
# Test conditions: HepG2 cells, read-out: Inhibition
A collection of molecules and their measured cytotoxicity at 70.5 h
Field format: number, assumed %, no unit text.

Illustrative cases are given below, each with its answer.
c1cnn(CC2CN(Cc3nc(-c4ccsc4)no3)CCO2)c1 (configuration not stated) :: -16.6
CC(=O)c1cccc(NS(=O)(=O)c2cc(C)c(C(=O)O)s2)c1 :: -4.79
CC(C)N1CCO[C@H]2CN(C(=O)c3ccoc3)C[C@H]21 :: -4.51
COc1ccc(C(CNS(=O)(=O)c2cn(C)nc2C)N2CCCC2)cc1 (configuration not stated) :: 26.7
CCOCCCNC(=O)c1cn(CC)nc1C :: -8.03

Looking up CCSc1nc2ccccc2c(=O)n1OCC(=O)OC , I see its cytotoxicity at 70.5 h listed as -8.5

Documented cytotoxicity at 70.5 h of CCc1noc(CN(C)Cc2cc(Br)ccc2OC)n1 : -5.46

Cn1cccc1CN1CCC2(CCCN(C(=O)Cc3cccnc3)C2)C1 (configuration not stated) yielded cytotoxicity at 70.5 h of 24.8

Recorded result, Cn1cccc1C(=O)N1CCO[C@@H]2CN(Cc3ccco3)C[C@@H]2C1 , cytotoxicity at 70.5 h: -5.04

Entry CNc1cc(C2CCCN2C(=O)CCc2ccccc2F)ccn1 (configuration not stated) , cytotoxicity at 70.5 h reported as -2.87

###

// reported cytotoxicity at 70.5 h per item
# Method: Human HepG2 cell viability assay in 384 well format
# Type: toxicity, cell-based
# Set-up: dose 125 nL, time 70.5 hour; concentration not given beside the values
# Test conditions: HepG2 cells, read-out: Inhibition
Note: unit % is implicit; provide only the numeric part.

c1ccc2c(c1)CC(N1CCCC(NCc3cccc4nonc34)C1)C2 (stereo unspecified) :: -9.28

For O=C1CCOC[C@]2(CN(Cc3ccccc3)C[C@H]2c2cccc(F)c2)N1 the molecule record lists cytotoxicity at 70.5 h as -2.96

In plain terms, CCc1c(C)nc(C)nc1N1C[C@@H](CN(C)C)[C@@H](CO)C1 has a documented cytotoxicity at 70.5 h of -1.15

Lab book: cytotoxicity at 70.5 h of O=C(C(CNCc1ccsc1)c1ccccc1)N1CCOCC1 (stereo unspecified) noted as -2.8

The molecule CC(C)(C)SCC(=O)NC(C)(C(N)=O)c1cccc(Cl)c1 (stereo unspecified) showed cytotoxicity at 70.5 h equal to -6.38

So for Cc1nnc2n1CCN(Cc1nc3ccccc3o1)C2 , the logged cytotoxicity at 70.5 h turned out to be -3.32

###

# Method: Human HepG2 cell viability assay in 384 well format
# Assay type: toxicity, cell-based
# Set-up: dose 125 nL, time 70.5 hour; concentration not given beside the values
# Test conditions: HepG2 cells, read-out: Inhibition
Collected cytotoxicity at 70.5 h values appear next to each entry.
Report as a plain number; the unit % is understood.

Cc1cnn(C2CCCN(C(=O)Cc3ccc(-n4cccn4)cc3)C2)c1 (stereo unspecified) :: -3.4

Record CC(O)(CNC(=O)c1c(F)cccc1Cl)c1ccco1 (stereo unspecified) . Reported cytotoxicity at 70.5 h: 29.8

# cytotoxicity at 70.5 h of CCOCC1C[C@@H]2OCCN(C(=O)c3ccc[nH]3)[C@H]2C1 (stereo partly specified) = -6.8

cytotoxicity at 70.5 h recorded for this compound, Cc1ccc(O)c(CNCC2CCCN2c2cccnn2)n1 (stereo unspecified) , is -11.5

For record NS(=O)(=O)CC1CCCN1CCOc1ccccc1F (stereo unspecified) the listed cytotoxicity at 70.5 h is -12.4

// cytotoxicity at 70.5 h lookup, compound = CNC(=O)c1c[nH]nc1C1CCCN1c1ncccn1 (stereo unspecified) , result: -4.93

###

# Method: Human HepG2 cell viability assay in 384 well format
# Type: toxicity, cell-based
# Set-up: dose 125 nL, time 70.5 hour; concentration not given beside the values
# Test conditions: HepG2 cells, read-out: Inhibition
Quantity measured: cytotoxicity at 70.5 h (%)
Give the value in % but do not write % after it.

Below: 3 compounds and their reported cytotoxicity at 70.5 h.
COc1ncccc1CN1CCn2c(Cn3cncn3)cnc2C1 :: 20.3
CCc1nc(NCC(=O)N2CCOCC2)c2c(n1)c(C)nn2CC :: -9.61
CC(CC1CC1)NCCCN1CCCN(C)CC1 (stereo not drawn) :: 7.35

Note to self: cytotoxicity at 70.5 h recorded for CN(C)c1ccc(CC2CCN(c3cnccn3)C2)nn1 (stereo not drawn) was -8.95

Looking up CC(C)(C)c1ncc(C(=O)NCCS(N)(=O)=O)s1 , I see its cytotoxicity at 70.5 h listed as -1.37

Per the records, this compound ( CN(CC1COCCO1)c1ncnc2cc(F)ccc12 (stereo not drawn) ) has cytotoxicity at 70.5 h equal to 19

Consider CCS(=O)(=O)NCC(=O)NC1(C)CCc2ccccc2C1 (stereo not drawn) . Its measured cytotoxicity at 70.5 h is -5.54

response.value for CCN(CC(=O)N(C)C)C(=O)c1ccc(-c2nc(C)cs2)cc1 (field: cytotoxicity at 70.5 h) = -4.36

###

The reader will find reported cytotoxicity at 70.5 h values listed item by item below.
# Method: Human HepG2 cell viability assay in 384 well format
# Format: toxicity, cell-based
# Design: dose 125 nL, time 70.5 hour; concentration not given beside the values
# Test conditions: HepG2 cells, read-out: Inhibition
// units = %; emit number, no label

Example compounds with recorded cytotoxicity at 70.5 h:
c1ccc(-n2ncc(CN3CCCC(Cn4cncn4)C3)n2)cc1 (stereo unspecified) :: 0.701
COCC(=O)Nc1nn(Cc2ccc(F)cc2)cc1Cl :: -5.91
CN(C)CCn1c2c(ccc1=O)CCN(Cc1ccncc1)CC2 :: -4.6
CC(C)c1n[nH]c(C2CN(C(=O)COc3ccc(F)cc3)CCO2)n1 (stereo unspecified) :: -8.14
CCOc1cc(Cl)ccc1CNC(=O)N(C)CC(C)(C)O :: -78.1

# ---- query compound ----
In plain terms, CN(C)C(=O)[C@H]1C[C@@H]2CN(c3ncccn3)C[C@H]1O2 has a documented cytotoxicity at 70.5 h of -4.11

###

# Method: Human HepG2 cell viability assay in 384 well format
# Assay type: toxicity, cell-based
# Design: dose 125 nL, time 70.5 hour; concentration not given beside the values
# Test conditions: HepG2 cells, read-out: Inhibition
Use -10% as the dividing line for cytotoxicity at 70.5 h, with the line itself on the t side and lower values as f.

Completed entries (count: 5):
COCCOc1ccc(NC(=O)N(CCO)C2CC2)cn1 :: f
O=S(=O)(Cc1ccccc1CN1CCOCC(O)C1)c1ccccc1 (stereo unspecified) :: t
COCCN(Cc1nccs1)C(=O)c1cc(-c2ccc(C)o2)n[nH]1 :: f
CN(C)C(=O)CN1CCC2(CC1)CC(=O)c1c(ccc3ccccc13)O2 :: t
CN(C)c1ccc(-c2cc(=O)n3c(n2)CCCCC3)cc1 :: f

Here's the next entry for you.
Textbook exercise: given the entry CO[C@H]1CN(Cc2nc3ccccc3n2C)CC[C@@]12CCCO2 , state whether its cytotoxicity at 70.5 h is greater than or equal to -10%.
t

###

# Method: Human HepG2 cell viability assay in 384 well format
# Format: toxicity, cell-based
# Parameters: dose 125 nL, time 70.5 hour; concentration not given beside the values
# Test conditions: HepG2 cells, read-out: Inhibition
Property: cytotoxicity at 70.5 h; scope: individual compounds

Example entries and their recorded answers appear below.
Cc1cnc(N2CCc3c(cnc(C)c3C(=O)O)C2)nc1 :: -2.57%
OC(c1cnn(-c2ccccc2)c1)C(F)(F)F (configuration not stated) :: -1.66%
Cc1ccc(CNc2cc3[nH]c(O)nc3cc2C)cc1 :: -19.5%
CN(C)c1cc(CNC(=O)c2ccc(F)cc2)ccn1 :: 2.85%
CCOCC1CN(CCN(C)C)Cc2cnn(CC3CCCC3)c21 (configuration not stated) :: 4.97%

GET /value?item= Cc1ccc(CN2C[C@@H](OCc3csc(C)n3)[C@H]3COC[C@H]32)s1 &field=cytotoxicity at 70.5 h returns -10.6%

According to the records, this compound CC(C)c1nc(CN(C)C(=O)c2ccc(CN3CCCCC3)cc2)cs1 displays cytotoxicity at 70.5 h of -7.38%

Please fill in: cytotoxicity at 70.5 h reported for CCn1c(C)nnc1CN(C)C1CCN(CCOc2ccccc2)C1 (configuration not stated) = 29.3%

The recorded cytotoxicity at 70.5 h for Cc1nn(C)c2c(=O)n(Cc3ccc(Cl)cc3)nnc12 is -9.56%

cytotoxicity at 70.5 h in this record for Cc1occc1C(=O)Nc1ccnc(OC2CCOC2)c1 (configuration not stated) : -7.45%

Lab note: measured cytotoxicity at 70.5 h of COc1cccc(N2CCN(Cc3cccc(CCN)c3)CC2=O)c1 was -6.65%

Consider O=C(Cc1cccnc1)N1CCCC(c2cc(C(F)(F)F)[nH]n2)C1 (configuration not stated) . Its measured cytotoxicity at 70.5 h is -2.42%

Form field cytotoxicity at 70.5 h, entry Clc1cccnc1N1CCC(C2CCN(Cc3cccnc3)CC2)C1 (configuration not stated) : 25.7%
